Tested on: MDA-MB-435
ASSAY OVERVIEW: NCI tumour cell line growth inhibition, 48 h
Active and inactive are the calls of the source. Rule as the data show it: active = GI50 up to about 1.1 µM and inactive = higher.
Outcomes: yes (1) (active), no (0) (inactive)

>  <COMPOUND>
Cn1cnc(N2CCCC2)c(C#N)c1=O

>  <EXPERIMENTAL TARGET>
MDA-MB-435

>  <LABEL CLASS>
no (0)

$$$$
>  <COMPOUND>
COP(=O)(OC)[C@@](O)(c1ccccc1)[C@@H](O)[C@@H](O)c1ccccc1

>  <EXPERIMENTAL TARGET>
MDA-MB-435

>  <LABEL CLASS>
no (0)

$$$$
>  <COMPOUND>
C=C1C(=O)O[C@@H]2C=C(C)C3=CC(=O)[C@](C)(C[C@H](OC(=O)/C(C)=C\C)[C@@H]12)O3

>  <EXPERIMENTAL TARGET>
MDA-MB-435

>  <LABEL CLASS>
yes (1)

$$$$
>  <COMPOUND>
ClCc1c(-c2ccccc2)nn(-c2ccccc2)c1CCl

>  <EXPERIMENTAL TARGET>
MDA-MB-435

>  <LABEL CLASS>
no (0)

$$$$
>  <COMPOUND>
O=C1CCCC2=C1CC1=C(CCCC1=O)N2c1ccc(-c2ccccc2)cc1

>  <EXPERIMENTAL TARGET>
MDA-MB-435

>  <LABEL CLASS>
no (0)

$$$$
>  <COMPOUND>
CCC(=O)Nc1ncnc2ncn(C(=O)CC)c12

>  <EXPERIMENTAL TARGET>
MDA-MB-435

>  <LABEL CLASS>
no (0)

$$$$
>  <COMPOUND>
CSc1nc(Cl)c(Br)c(Nc2cnc(O)nc2O)n1

>  <EXPERIMENTAL TARGET>
MDA-MB-435

>  <LABEL CLASS>
no (0)

$$$$
>  <COMPOUND>
COC(=O)C1=C(O)C(C(=O)OC)[C@]2(O)[C@H](C(=O)OC)[C@H]1C[C@@H](c1ccc(Cl)cc1)[C@H]2C(=O)OC (stereo not given in full)

>  <EXPERIMENTAL TARGET>
MDA-MB-435

>  <LABEL CLASS>
no (0)

$$$$
>  <COMPOUND>
CCOC(=O)c1sc2nc(SC)nc(Nc3ccc4c(c3)OCO4)c2c1N

>  <EXPERIMENTAL TARGET>
MDA-MB-435

>  <LABEL CLASS>
no (0)

$$$$
>  <COMPOUND>
[BH3-][P+]1(CC[P@@+]([BH3-])(c2ccccc2)c2ccccc2OC)[C@@H](C)[C@@H](O)[C@H](O)[C@@H]1C (stereo not given in full)

>  <EXPERIMENTAL TARGET>
MDA-MB-435

>  <LABEL CLASS>
no (0)

$$$$
